experimental_details: inhibition of 3D7 malaria parasite growth – strain 3D7 (AID 2306);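 further: 0% = DMSO wells and 100% = chloroquine plus artemisinin control wells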
condition_summary: P. falciparum 3D7 erythrocytic growth, LDH absorbance, 72 h; at 2 µM; hits give high values
Active and inactive are the calls of the source. How the calls were made is not given here.
value_type: growth inhibition

>>> df
                                   molecule  observed_result
0  CC1Cc2ccccc2N1S(=O)(=O)c1cc(OCC(F)(F)F)ccc1OCC(F)(F)F (stereo not given)     96% (active)
1  C#CCCC(=O)Nc1cccc(-c2cccc(-c3nc4c(C)cccc4[nH]3)c2)c1     97% (active)
2  Cc1cc(CNCCCCCNCc2cccc([N+](=O)[O-])c2)ccc1O     98% (active)
3  CCn1c(-c2nc(-c3ccc4c(c3)OCO4)cnc2N)nc2cnccc21    100% (active)
4          CCCCCCCCc1c(C)[nH]c(C)c(C#N)c1=O     97% (active)

Where do the numbers come from? From PubChem BioAssay.
